target: VtrA–VtrC periplasmic domain complex (heterodimer) (Vibrio parahaemolyticus, UniProt Q87GI3+Q87GI4, Q87GI3:S123A); assay: biochemical
pKd: −log10 of the molar value.
Reported pKd values are given for each entry in this list.
Value kind: pKd

{"Compound": "C[C@H](CCC(=O)O)[C@H]1CC[C@H]2[C@@H]3[C@H](O)C[C@@H]4C[C@H](O)CC[C@]4(C)[C@H]3CC[C@]12C [CDC, chenodeoxycholate]", "Value kind": "pKd", "Value reported": 6.69}
{"Compound": "C[C@H](CCC(=O)NCCS(=O)(=O)O)[C@H]1CC[C@H]2[C@@H]3CC[C@@H]4C[C@H](O)CC[C@]4(C)[C@H]3C[C@H](O)[C@]12C [TDC, taurodeoxycholate]", "Value kind": "pKd", "Value reported": 7.04}

Measured values drawn from paper PMC10140157 for this set.
